conditions: in ethanol, 298.15 K
result_type: solubility (mole fraction)

> print(dat)
                              line.notation  value.reported
1  CO[C@@]1(NC(=O)Cc2cccs2)C(=O)N2C(C(=O)O)=C(COC(N)=O)CS[C@@H]21        0.000852

###

conditions: in n-propanol, 303.15 K
result_type: solubility (mole fraction)

> print(dat)
                              line.notation  value.reported
1  CO[C@@]1(NC(=O)Cc2cccs2)C(=O)N2C(C(=O)O)=C(COC(N)=O)CS[C@@H]21        0.000492

###

conditions: in acetonitrile, 283.15 K
result_type: solubility (mole fraction)

> print(dat)
                              line.notation  value.reported
1  CO[C@@]1(NC(=O)Cc2cccs2)C(=O)N2C(C(=O)O)=C(COC(N)=O)CS[C@@H]21        0.000491
